src = PubChem BioAssay (NCATS)

# Test system: ATS189
# procedure details: qHTS profiling for inhibitors of Plasmodium falciparum proliferation (AID 504749);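 also: 0% = DMSO vehicle and full inhibition = artemisinin control; nearly all actives have a fitted effect of over 60% in size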
# run parameters: P. falciparum in erythrocytes, SYBR Green DNA, 72 h; series mostly up to 28.7 µM
Records with an inconclusive call do not appear. Active and inactive are the calls of the source. Calls follow the shape of the dose curve; as a rule, active = well fitted inhibition curve with a large enough effect; inconclusive = small, poorly fitted or top-dose-only effect; inactive = flat fitted curve, though single readings scatter.
Could you please pick one outcome from this set? active, inactive

Check out these entries, answers already filled in.
O=c1[nH]c(=O)c2[nH]c(=O)[nH]c2[nH]1 :: inactive
Nc1ccc(S(=O)(=O)Nc2nccs2)cc1 :: inactive
CC(=O)Nc1ccc(/C=N/NC(N)=S)cc1 :: inactive

What outcome does the record of this test show for `Cn1c(=O)c2c(ncn2CC2OCCO2)n(C)c1=O` ? inactive

What outcome does the record of this test show for `CC1=C(/C=C/C(C)=C/C=C/C(C)=C/C(=O)O)C(C)(C)CCC1` ? inactive

What outcome does the record of this test show for `[O-][n+]1cccc(CO)c1` ? inactive

What outcome does the record of this test show for CN1CCN(C2Cc3ccccc3Sc3ccc(Cl)cc32)CC1 (centres undefined) ? inactive

What outcome does the record of this test show for `Cc1cc2c(cc1S(N)(=O)=O)S(=O)(=O)CCC2` ? inactive

What outcome does the record of this test show for `O=C(O)CN1C(=O)c2cccc3cccc(c23)C1=O` ? inactive

What outcome does the record of this test show for OCc1cc(C(O)CNCCCCCCOCCCCc2ccccc2)ccc1O (centres undefined) ? inactive

* * *

# procedure details: qHTS of pediatric cancer cell lines to identify multiple opportunities for drug repurposing: Primary screen for BT-12 cells (AID 1347101); also: nearly all actives have a fitted effect of over 25% in size
# run parameters: BT-12 viability, CellTiter-Glo luminescence, 48 h; series mostly up to 57.3 µM
Inconclusive results are not listed. Activity calls are given as the source filed them. Calls come from the whole dose curve; as a rule, active = well fitted cell-killing curve with a large enough effect; inconclusive = small, poorly fitted or top-dose-only effect; inactive = flat fitted curve, though single readings scatter.
Could you please pick one outcome from this set? Y (active), N (inactive)

Check out these entries, answers already filled in.
Oc1ccc(C(O)CNCCCCCCNCC(O)c2ccc(O)c(O)c2)cc1O (centres undefined) :: N
Cc1cc(CC(=O)O)n(C)c1C(=O)c1ccc(Cl)cc1 :: N
COc1cc(C)c(Cc2cnc(N)nc2N)cc1OC :: N
[O-][n+]1cccc(CO)c1 :: N
O=C(O)[C@H](O)c1ccccc1 :: N
COc1cc2[nH]c(=O)[nH]c(=O)c2cc1OC :: N

What outcome does the record of this test show for NC(CSCC(=O)O)C(=O)O (centres undefined) ? N

What outcome does the record of this test show for `O=C(O)c1ccccn1` ? N

What outcome does the record of this test show for CSc1ccc2c(c1)N(CCC1CCCCN1C)c1ccccc1S2 (centres undefined) ? Y

* * *

# assayed target: D(1A) dopamine receptor (Homo sapiens)
# procedure details: HTS Assay for Allosteric Agonists of the Human D1 Dopamine Receptor: Primary Screen for Antagonists (AID 488983);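 also: calcium flux response to an EC80 dopamine challenge measured with no-wash dye; nearly all actives have a fitted effect of over 65% in size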
# run parameters: D1 receptor cell assay, antagonist mode, qHTS titration; series mostly up to 41.8 µM
Records with an inconclusive call do not appear. Active and inactive are the calls of the source. Calls come from the whole dose curve; as a rule, active = well fitted inhibition curve with a large enough effect; inconclusive = small, poorly fitted or top-dose-only effect, or effect the other way; inactive = flat fitted curve, though single readings scatter.
Could you please pick one outcome from this set? 1.0 (active), 0.0 (inactive)

Check out these entries, answers already filled in.
C[C@](N)(Cc1ccc(O)cc1)C(=O)O :: 0.0
C[C@]12CC[C@@H]3c4ccc(O)cc4CC[C@H]3[C@@H]1CCC2=O :: 0.0
CN(C)CC[C@@H](c1ccc(Cl)cc1)c1ccccn1 :: 0.0
CC[C@H]1CN2CCc3cc(OC)c(OC)cc3[C@@H]2C[C@@H]1C[C@H]1NCCc2cc(OC)c(OC)cc21 :: 0.0
NC(=O)c1ncn([C@@H]2O[C@H](CO)[C@@H](O)[C@H]2O)n1 :: 0.0
CC(C)(C)c1onc(OCP(=O)(O)O)c1CC(N)C(=O)O (configuration not stated) :: 0.0
CNCCCC1c2ccccc2C=Cc2ccccc21 :: 1.0
CC(C)(C(=O)O)c1ccc(C(O)CCCN2CCC(C(O)(c3ccccc3)c3ccccc3)CC2)cc1 (configuration not stated) :: 0.0
NC1CCN(c2cccc(Cl)n2)CC1 :: 0.0
CCCn1cnc2c1c(=O)n(CCCCC(C)=O)c(=O)n2C :: 0.0

What outcome does the record of this test show for `CC1=C(/C=C/C(C)=C/C=C/C(C)=C/C(=O)O)C(C)(C)CCC1` ? 0.0

What outcome does the record of this test show for `CCCCCCCCCCCCCCCC(=O)NCCO` ? 0.0

What outcome does the record of this test show for CN(C)CCOC(C)(c1ccccc1)c1ccccn1 (configuration not stated) ? 0.0

What outcome does the record of this test show for `C=Cc1c(C)c2cc3[nH]c(cc4nc(cc5nc(cc1[nH]2)C(C)=C5CCC(=O)O)C(CCC(=O)O)=C4C)c(C)c3C=C` ? 0.0

What outcome does the record of this test show for CC1=C(CC(=O)O)c2cc(F)ccc2/C1=C\c1ccc(S(C)=O)cc1 (configuration not stated) ? 0.0

What outcome does the record of this test show for CSc1ccc2c(c1)C(N1CCN(C)CC1)Cc1ccccc1S2 (configuration not stated) ? 1.0

What outcome does the record of this test show for `C[C@]12C[C@H](O)[C@H]3[C@@H](CCC4=CC(=O)CC[C@@]43C)[C@@H]1CC[C@@H]2C(=O)CO` ? 0.0
